Kindly state human CTGF koff for each of the entries shown.
- measurement-target: T1, human CTGF (Homo sapiens, UniProt P29279)
- T1 construct: purchased Creative Biomart
- T1 sequence (P29279 with tags, fused parts or gaps H83D): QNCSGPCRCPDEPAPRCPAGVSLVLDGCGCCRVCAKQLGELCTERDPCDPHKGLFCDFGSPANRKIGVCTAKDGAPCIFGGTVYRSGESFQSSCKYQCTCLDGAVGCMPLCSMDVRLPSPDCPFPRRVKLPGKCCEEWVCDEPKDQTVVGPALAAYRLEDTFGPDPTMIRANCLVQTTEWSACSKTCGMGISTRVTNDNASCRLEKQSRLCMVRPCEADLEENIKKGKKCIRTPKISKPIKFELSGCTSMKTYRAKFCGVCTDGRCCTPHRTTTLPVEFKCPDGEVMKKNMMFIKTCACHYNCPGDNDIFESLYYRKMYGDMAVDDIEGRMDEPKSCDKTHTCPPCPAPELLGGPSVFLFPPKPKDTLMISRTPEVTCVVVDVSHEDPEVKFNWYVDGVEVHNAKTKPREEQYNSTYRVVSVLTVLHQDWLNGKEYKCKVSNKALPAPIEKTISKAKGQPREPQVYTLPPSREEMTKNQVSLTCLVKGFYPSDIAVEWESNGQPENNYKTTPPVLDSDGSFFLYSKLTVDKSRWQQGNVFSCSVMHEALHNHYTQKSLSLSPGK
- assay-protocol: SPR binding kinetics and affinity, human CTGF
- measurement-setup: 25° C., 1:1 binding model
Numbers only, in s⁻¹.

[
  {
    "molecule": "SEQ ID NO: 18: optimized CTGF-binding hNGAL lipocalin mutein (protein, lipocalin mutein) QDSTSDLIPAPPLSKVPLQQNFQDNQFQGKWYVVGIAGNAILRDDKYPAKMFATIYELKEDKSYDVTSVRFENKSCIYTIKTFVPGSQPGEFTHGNIKSHPGQTSTLVRVVSTNYNQHAMVFFKHVSQNREIFVITLYGRTKELTSELKENFIRFSKSLGLPENHIVFPVPIDQCIDG",
    "human CTGF koff, s⁻¹": "3.05e-06"
  }
]

Now take the following molecule into account.
Could you share which human CTGF koff value was measured for SEQ ID NO: 25: parent CTGF-binding hNGAL lipocalin mutein (protein, lipocalin mutein) QDSTSDLIPAPPLSKVPLQQNFQDNQFHGKWYVVGMAGNFRLREDKDPSKMGATIYELKEDKSYNVTQVQFDDKKCLYVIETFVPGSQPGEFTLGAIKSFPGFTSQLVRVVSTNYNQHAMVFFKKVYQNREVFWITLYGRTKELTSELKENFIRFSKSLGLPENHIVFPVPIDQCIDG ?
0.000248
